Each recorded value in this set is attributed to PubChem BioAssay (NCI).

- Tested on: PC-3 prostate
- assay-method-text: NCI-60 one-dose screen, 48 h (100 = growth as untreated, 0 = no growth, -100 = all killed)
- test-parameters: 10 µM unless noted
This is part of a sample that, as a whole, favours compounds with a hit. Of some 83,000 tested, about 20% had one in any assay.
For each of the compounds below, state its growth.
Just the number please, in %, no unit attached.

*Q* Determine its reported growth: Cc1nc2c3c(-c4ccccc4)c(-c4ccccc4)oc3ncn2n1
*A* 91.3

*Q* Determine its reported growth: CCCCCCN(CCCCCC)C(=N)c1ccnc2ccccc12
*A* 58.3

*Q* Determine its reported growth: NNCCc1ccc(NC(=O)CCCc2ccc(/C=C/C(=O)NO)cc2)cc1
*A* 53.9

*Q* Determine its reported growth: COc1ccc(CN2c3ccccc3Oc3ccccc32)cc1O
*A* 31.4

*Q* Determine its reported growth: CC(=O)O[C@H]1CC[C@]2(C)[C@H]3CC=C4[C@@H]5CC(C)(C)CC[C@]5(C(=O)NCCNCCNCCN)CC[C@@]4(C)[C@]3(C)CC[C@H]2C1(C)C
*A* 38.9

*Q* Determine its reported growth: CNC(=O)c1cc(Oc2ccc(NC(=O)Nc3ccc(Cl)c(OC(F)(F)F)c3)c(F)c2)ccn1
*A* 22.1

*Q* Determine its reported growth: O=C1/C(=C/c2cn(-c3ccccc3)nc2-c2ccccc2)SC(=S)N1CCc1ccccc1
*A* 100

*Q* Determine its reported growth: CC[N+](CC)=c1sc2c(s1)C(c1ccc(Cl)cc1)Oc1ccc(Cl)cc1-2 (centres undefined)
*A* 3.92

*Q* Determine its reported growth: CN1CCN(c2nc(NCCCNc3ccnc4cc(Cl)ccc34)c3ccccc3n2)CC1
*A* 43.4
